system: Streptococcus sp.; test: in vitro antibacterial evaluation, MIC by broth dilution; assay type: cell-based; conditions: Streptococcus pneumoniae (GC 4565); broth dilution, 18 hours at 35° C.
parameter-measured: MIC Streptococcus pneumoniae (GC 4565) (µg/mL)

>>> obs_value("CCCC(C)C1OCC2OC(OC3C(CO)OC(Oc4ccc(CC5NC(=O)C(C(C)c6ccccc6)NC(=O)CNC(=O)C(CO)NC(=O)C(C(O)C6CNC(=N)N6C6OC(CO)C(O)C(O)C6O)NC(=O)C(C(O)C6CNC(=N)N6)NC5=O)cc4)C(O)C3O)C(O)C(O)C2O1 (centres unmarked)")
0.5
>>> obs_value("CC(c1ccccc1)C1NC(=O)CNC(=O)C(CO)NC(=O)C(C(O)C2CNC(=N)N2C2OC(CO)C(O)C(O)C2O)NC(=O)C(C(O)C2CNC(=N)N2)NC(=O)C(Cc2ccc(OC3OC(CO)C(OC4OC(CO)C(O)C5OC(c6ccccc6)OC45)C(O)C3O)cc2)NC1=O (single isomer, unassigned) [Example 104a]")
0.12
>>> obs_value("CC(c1ccccc1)C1NC(=O)CNC(=O)C(CO)NC(=O)C(C(O)C2CNC(=N)N2C2OC(CO)C(O)C(O)C2O)NC(=O)C(C(O)C2CNC(=N)N2)NC(=O)C(Cc2ccc(OC3OC(CO)C(OC4OC(CO)C(O)C5OC(c6ccccc6)OC45)C(O)C3O)cc2)NC1=O (single isomer, unassigned) [Example 104b]")
0.12
>>> obs_value("CC(c1ccccc1)C1NC(=O)CNC(=O)C(CO)NC(=O)C(C(O)C2CNC(=N)N2C2OC(CO)C(O)C(O)C2O)NC(=O)C(C(O)C2CNC(=N)N2)NC(=O)C(Cc2ccc(OC3OC(CO)C(OC4OC5COC(C6CC=CCC6)OC5C(O)C4O)C(O)C3O)cc2)NC1=O (centres unmarked)")
0.12
>>> obs_value("CC(=O)n1cc(C2OCC3OC(OC4C(CO)OC(Oc5ccc(CC6NC(=O)C(C(C)c7ccccc7)NC(=O)CNC(=O)C(CO)NC(=O)C(C(O)C7CNC(=N)N7C7OC(CO)C(O)C(O)C7O)NC(=O)C(C(O)C7CNC(=N)N7)NC6=O)cc5)C(O)C4O)C(O)C(O)C3O2)c2ccccc21 (centres unmarked)")
0.5
>>> obs_value("CC(c1ccccc1)C1NC(=O)CNC(=O)C(CO)NC(=O)C(C(O)C2CNC(=N)N2C2OC(CO)C(O)C(O)C2O)NC(=O)C(C(O)C2CNC(=N)N2)NC(=O)C(Cc2ccc(OC3OC(CO)C(OC4OC5COC(c6ccc7c(c6)OCCO7)OC5C(O)C4O)C(O)C3O)cc2)NC1=O (centres unmarked)")
2
>>> obs_value("CC(c1ccccc1)C1NC(=O)CNC(=O)C(CO)NC(=O)C(C(O)C2CNC(=N)N2C2OC(CO)C(O)C(O)C2O)NC(=O)C(C(O)C2CNC(=N)N2)NC(=O)C(Cc2ccc(OC3OC(CO)C(OC4OC5COC(c6ccsc6)OC5C(O)C4O)C(O)C3O)cc2)NC1=O (centres unmarked)")
4

----------
test system: Staphylococcus sp.; test: in vitro antibacterial evaluation, MIC by broth dilution; type: cell-based; conditions: broth dilution, 18 hours at 35° C.; strain GC 6257
parameter-measured: MIC Coagulase Negative Staphylococcus (GC 6257) (µg/mL)

>>> obs_value("Cc1ccc(COCC2OC(OC3C(CO)OC(Oc4ccc(CC5NC(=O)C(C(C)c6ccccc6)NC(=O)CNC(=O)C(CO)NC(=O)C(C(O)C6CNC(=N)N6C6OC(CO)C(O)C(O)C6O)NC(=O)C(C(O)C6CNC(=N)N6)NC5=O)cc4)C(O)C3O)C(O)C(O)C2O)cc1 (stereo not shown)")
1
>>> obs_value("CC(c1ccccc1)C1NC(=O)CNC(=O)C(CO)NC(=O)C(C(O)C2CNC(=N)N2C2OC(CO)C(O)C(O)C2O)NC(=O)C(C(O)C2CNC(=N)N2)NC(=O)C(Cc2ccc(OC3OC(CO)C(OC4OC5COC(CC6CCN(C(=O)OCc7ccccc7)CC6)OC5C(O)C4O)C(O)C3O)cc2)NC1=O (stereo not shown)")
0.5
>>> obs_value("CC(c1ccccc1)C1NC(=O)CNC(=O)C(CO)NC(=O)C(C(O)C2CNC(=N)N2C2OC(CO)C(O)C(O)C2O)NC(=O)C(C(O)C2CNC(=N)N2)NC(=O)C(Cc2ccc(OC3OC(CO)C(OC4OC(COCc5cccs5)C(O)C(O)C4O)C(O)C3O)cc2)NC1=O (stereo not shown)")
2

----------
Recorded MIC Staphylococcus aureus (GC 4544) by entry
Test system: Staphylococcus sp.
Assay: in vitro antibacterial evaluation, MIC by broth dilution
Format: cell-based
Details: strain GC 4544; broth dilution, 18 hours at 35° C.
From the text: Methods for in vitro Antibacterial Evaluation (Table 1) […]
parameter-measured: MIC Staphylococcus aureus (GC 4544)

>>> obs_value("CC(c1ccccc1)C1NC(=O)CNC(=O)C(CO)NC(=O)C(CC2CN(Cc3ccccc3)C(=N)N2C2OC(CO)C(O)C(O)C2O)NC(=O)C(CC2CNC(=N)N2)NC(=O)C(Cc2ccc(OC3OC(CO)C(OC4OC5COC6(OC5C(O)C4O)C4CC5CC(C4)CC6C5)C(O)C3O)cc2)NC1=O (stereo not shown) [Example 80]")
"32 µg/mL"
>>> obs_value("CCCCCCC(=O)Nc1cc(CC2NC(=O)C(C(C)c3ccccc3)NC(=O)CNC(=O)C(CO)NC(=O)C(C(O)C3CNC(=N)N3C3OC(CO)C(O)C(O)C3O)NC(=O)C(C(O)C3CNC(=N)N3)NC2=O)ccc1O (stereo not shown) [Example 16]")
"128 µg/mL"
>>> obs_value("CC(c1ccccc1)C1NC(=O)CNC(=O)C(CO)NC(=O)C(C(O)C2CNC(=N)N2C2OC(COC(=O)C(c3ccccc3)c3ccccc3)C(O)C(O)C2O)NC(=O)C(C(O)C2CNC(=N)N2)NC(=O)C(Cc2ccc(OC3OC(CO)C(OC4OC(CO)C(O)C(O)C4O)C(O)C3O)cc2)NC1=O (stereo not shown) [Example 96]")
">128 µg/mL"
>>> obs_value("CC(c1ccccc1)C1NC(=O)CNC(=O)C(CO)NC(=O)C(C(O)C2CNC(=N)N2C2OC(CO)C(O)C(O)C2O)NC(=O)C(C(O)C2CNC(=N)N2)NC(=O)C(Cc2ccc(OC3OC(CO)C(OC4OC5COC(c6cccc(Oc7cccc(C(F)(F)F)c7)c6)OC5C(O)C4O)C(O)C3O)cc2)NC1=O (stereo not shown) [Example 184]")
"32 µg/mL"

----------
tested on: Staphylococcus sp.; assay: in vitro antibacterial evaluation, MIC by broth dilution; type: cell-based; conditions: broth dilution, 18 hours at 35° C.
parameter-measured: MIC Staphylococcus aureus (GC 4541) (mg/L)

>>> obs_value("Cc1ccc(COCC2OC(OC3C(CO)OC(Oc4ccc(CC5NC(=O)C(C(C)c6ccccc6)NC(=O)CNC(=O)C(CO)NC(=O)C(C(O)C6CNC(=N)N6C6OC(CO)C(O)C(O)C6O)NC(=O)C(C(O)C6CNC(=N)N6)NC5=O)cc4)C(O)C3O)C(O)C(O)C2O)cc1 (centres unmarked)")
2
>>> obs_value("CC(C)=CCCC1OCC2OC(OC3C(CO)OC(Oc4ccc(CC5NC(=O)C(C(C)c6ccccc6)NC(=O)CNC(=O)C(CO)NC(=O)C(C(O)C6CNC(=N)N6C6OC(CO)C(O)C(O)C6O)NC(=O)C(C(O)C6CNC(=N)N6)NC5=O)cc4)C(O)C3O)C(O)C(O)C2O1 (centres unmarked)")
4

----------
Test system: Enterococcus sp.
Test: in vitro antibacterial evaluation, MIC by broth dilution
Type: cell-based
Conditions: broth dilution, 18 hours at 35° C.
Description: Methods for in vitro Antibacterial Evaluation (Table 1) […]
molecules and their reported MIC Enterococcus faecalis (GC 2691)
parameter-measured: MIC Enterococcus faecalis (GC 2691) (µg/mL)

>>> obs_value("CC(C)=CCN1CC(C(O)C2NC(=O)C(C(O)C3CNC(=N)N3)NC(=O)C(Cc3ccc(OC4OC(CO)C(OC5OC6COC7(OC6C(O)C5O)C5CC6CC(C5)CC7C6)C(O)C4O)cc3)NC(=O)C(C(C)c3ccccc3)NC(=O)CNC(=O)C(CO)NC2=O)N(C2OC(CO)C(O)C(O)C2O)C1=N (stereo not shown)")
16
>>> obs_value("CC(c1ccccc1)C1NC(=O)CNC(=O)C(CO)NC(=O)C(CC2CNC(=N)N2C2OC(CO)C(O)C(O)C2O)NC(=O)C(CC2CNC(=N)N2)NC(=O)C(Cc2ccc(OC3OC(CO)C(OC4OC(CO)C(O)C(OCc5ccc(OCc6ccccc6)cc5)C4O)C(O)C3O)cc2)NC1=O (stereo not shown) [Example 246b]")
128
>>> obs_value("CCCOc1ccc(COCC2OC(OC3C(CO)OC(Oc4ccc(CC5NC(=O)C(C(C)c6ccccc6)NC(=O)CNC(=O)C(CO)NC(=O)C(C(O)C6CNC(=N)N6C6OC(CO)C(O)C(O)C6O)NC(=O)C(C(O)C6CNC(=N)N6)NC5=O)cc4)C(O)C3O)C(O)C(O)C2O)cc1 (stereo not shown)")
4
>>> obs_value("COc1ccc2cc(COC3C(CO)OC(OC4C(CO)OC(Oc5ccc(CC6NC(=O)C(C(C)c7ccccc7)NC(=O)CNC(=O)C(CO)NC(=O)C(CC7CNC(=N)N7C7OC(CO)C(O)C(O)C7O)NC(=O)C(CC7CNC(=N)N7)NC6=O)cc5)C(O)C4O)C(O)C3O)ccc2c1 (stereo not shown) [Example 245a]")
8

Source: patent US6914045B2
